Sourced from the supplement of paper PMC12764529

Consider the following sequences and their measured folding stability dG unfold readings.
test.protocol: folding stability dG unfold from chymotrypsin proteolysis; higher = more stable

sequence.string	folding stability dG unfold
SAGGKTIEVEIVVPPDMTPEEVAARLAAALPPGAKIRVEEVREVTGPDGRKYRIFKVTIYDEKTGEPLSAGG [r13_12_TrROS_Hall]	2.99 kcal/mol
SAGGSAGGSMKITKSPSGYYTVTINLPNGTTVEIKVSTSDPNATDEQIIEIAKPKAEEILKKSSAGGSAGGS [r12_642_JUSTAS]	2.87 kcal/mol
SAGGSAGGSAGGNIEVLPIPDGYWVIKIPDGRIMVFNPGRGEFEPIPIENVTIEPVRPGDSAGGSAGGSAGG [r7_656_TrROS]	0.929 kcal/mol
SAGGPVIEVESLEELKKALELLKEGKEVVIRVRVRRTETLPDGRKRVEEREVVYRATVEDGKLTIEPLSAGG [r13_835_TrROS_Hall]	3.91 kcal/mol
SAGGSAGGSMPLKLVELKPLEESTGENGVPTVRVELVLERPGERITVELEVSPEEIEALIKKLLSAGGSAGG [r6_379_JUSTAS]	1.07 kcal/mol
SAGGATFAPGQTITVTVTVTLADGSTVTVTATVRIEVRAAPAPPVTVTNADGSTRTFTSAEEARAAASAGGS [r16_580_TrROS_Hall]	0.211 kcal/mol
SAGGSAGGSAWGWISFNFEFLMFNPDGMFMPFRMQIDIRVEVKPEPKPKPKPKRDPNGKWKSAGGSAGGSAG [r3_252_TrROS]	2.8 kcal/mol
SAGGDVTISIMIFVWPGWTEEQYKEMAKEVAKTIARQLAQKNPDLNENIDIEDIEVTIIPMEGDPDYFSAGG [r13_128_TrROS]	1.35 kcal/mol
ERDLIVIAGDDLTPEQLRELLEELGFRPEDAEIFREGDALLIVLPDAVILVVRPPPLPVLSEDDPELLEEAS [r1_57_TrMRF]	3.28 kcal/mol
SAGGSAGGSAGEKTLKIVADSEEEAEALAKELAEKYNLEVTIERNPEEEGKYVITIKIKPSAGGSAGGSAGG [r11_797_TrROS_Hall]	3.5 kcal/mol
SAGGKEYRNPENGQKIPPGDTEEEREKHAREHAKPVIVPIEIPIVIKFGDVIFPIPITFEIPLTPGGSAGGS [r16_387_TrROS]	-0.0327 kcal/mol
SAGGSAGGSLNPEKPSVRIRIKVQKPDGSYEEIDIEVPFQDIPDVIDELKKKGYKILSIELEPSAGGSAGGS [r12_986_TrMRF]	4.31 kcal/mol
SMVTVEEYEEDDEYYVKVYDPEKGVGVVFKTKDGVFKMPVTDPEALKEAIKASGIDVEIVEVRPLGPGLVSA [r9_1102_JUSTAS]	0.581 kcal/mol
SAGGSAGGSAGGDPIRVDDIEPNPDRLEIDIRNFGNGNQKKHTIPPGSPPKIKPGDYIRSAGGSAGGSAGGS [r10_834_TrROS]	0.857 kcal/mol
SAGGSAGGVVLEVEIPYESEEEAREKAEEVLKELGLPESAKITKIEFYPGPGEKKSVKVYIKLESAGGSAGG [r6_284_JUSTAS]	1.73 kcal/mol
SAGGMPKPVTLPAVIELGAGPAIAVEEFPETGKLVFVFPPTHRIFVFDPNGKLVAEVDVPPDVPVSAVSAGG [r13_507_TrMRF]	0.973 kcal/mol
SAGGSAGGSAGRRLVLEFDDESLAVPAAEFLERVLGLELVSIERVPDGERERVLVVLDFPSAGGSAGGSAGG [r11_232_TrMRF]	2.45 kcal/mol
SAGGSAGGSPPDFVIQPEVEHTRDPENGKHEATVKIEIMDGRPIEIPFKSPEDAEDAIKELINSAGGSAGGS [r12_389_TrROS]	0.382 kcal/mol
KTVMIMFKNPEQILNQLREARDDGKTVSIMFPDEWINELKNLGFKIDKITDVQPMPGNDSYMVEIKIKPKDS [r1_173_TrROS]	2.31 kcal/mol
SKPVLVKVKIVTKNKNGKKIEKELVIEMSEEDLEKLLEELLNDPNLKDVEKIEIEVVDAETGEVYTFTFPSA [r9_97_TrROS_Hall]	3.15 kcal/mol
SAGGLAKAVAEELGLPELKVKEVRFAPDPAGPGLTVEVVFELPDGSYLRVEVRFHPDRIEIKAVPLPPSAGG [r19_392_TrMRF]	3.65 kcal/mol
SAGGSAIWIPVDEIRDLLKEFGIDVTVERHPNDGWVEIEIKMRRPNGKKHPIKIWVHPDGYIRIEPSAGGSA [r15_1051_TrROS]	4.42 kcal/mol
SAGGSATIEEIANMPAEEIAQEHGMEVKDVDIERVPNGTITVEVEYEPPDGKKHKHTFQIKIDEGQSAGGSA [r15_805_TrROS]	0.251 kcal/mol
SAGGSAGGSAGGMIKTEDGYEVEIKIEVEEIPLPEGMSEEEKEKLKKIRIIRIEIKVTKKSAGGSAGGSAGG [r7_324_TrROS_Hall]	2.5 kcal/mol
SAGGSAGGSAGGKIEIDNIERFRPPNGNRYYKMTIRVEGNGKEREIWAPADDADNFKIESAGGSAGGSAGGS [r10_326_TrROS]	-0.0266 kcal/mol
SAGGSAGGSAGGAMTVETVELPSGEVVTLEYDPASGRVLTTVETPDSVERTEDPLEPPAASAGGSAGGSAGG [r7_63_JUSTAS]	-0.403 kcal/mol
SATFTLPDGREVEVVSVEYDPETNTVTVLVRDRETGELYVFTFERLPDGEWRIVSRERVRVEPGETVLVSAG [r14_13_TrROS_Hall]	3.23 kcal/mol
